A collection of compounds and their measured growth inhibition
Assay: NCI Yeast Anticancer Drug Screen. Data for the cln2 rad14 strain (AID 165);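 further: 0% = growth equal to vehicle treated cultures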
Settings: S. cerevisiae cln2 rad14 strain, at 50.0 µM, active compounds read high
Compounds without any hit were thinned out: in the full panel of roughly 79,000, 15% have a hit.
Answer in %, number only, no unit symbol.

Completed entries (count: 2):
compound="CCCCN(CCCC)CC(O)c1cc(-c2ccc(Cl)cc2)nc2cc(C)ccc12 (stereo unspecified)" value_measured=96.2
compound=C=C(Br)CN(CC)CC value_measured=11.7

Lookup: Please give the measured growth inhibition for this compound: ClC1=C(Cl)C(Cl)(Cl)C(Cl)(Cl)C1(Cl)Cl
Found: 98

Lookup: Which growth inhibition is listed for COc1ccc(C(O)/C(=N\NC(N)=S)c2nc3ccc([N+](=O)[O-])cc3[nH]c2=O)cc1OC (stereo unspecified) ?
Found: 6.55

Lookup: I'd like to know its growth inhibition. The compound in question is COc1cc(/C=C2\CC(C)C/C(=C\c3ccc(O)c(OC)c3)C2=O)ccc1O (stereo unspecified)
Found: 81.6

Lookup: growth inhibition for Clc1nc(Cl)c(Cl)c(-c2ccccc2)n1 ?
Found: 84.8

Lookup: Item CC(C)(COC(=O)Nc1cccc(Cl)c1)[N+](=O)[O-] has what recorded growth inhibition?
Found: -33.5

---

Test: NCI Yeast Anticancer Drug Screen. Data for the sgs1 mgt1 strain (AID 161);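 further: 0% = growth of cultures given vehicle only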
Conditions: S. cerevisiae sgs1 mgt1 strain, at 5.0 µM (retest, dose inferred, filed as 0.5)
This is part of a sample that, as a whole, favours compounds with a hit. Of some 79,000 tested, about 15% had one in any assay. Active and inactive are the calls of the source. Rule as the data show it: active = growth inhibition above about 70%; inactive = the rest.
The categories you may choose from are active, inactive

Reference set, count: 2
molecule=CCC[CH2][Ge]([CH2]CCC)([CH2]CCC)[O]C(=O)CC(=O)c1ccccc1 assigned_label=inactive
molecule=C[C@H]1CC[C@@H]2[C@@H](C)[C@H]3[C@H](C[C@H]4[C@@H]5CC=C6C[C@@H](O)CC[C@]6(C)[C@H]5C[C@H](O)[C@]34C)N2C1 assigned_label=inactive

Lookup: Hi, sorry to bother you, what did the test record for CN(C)CCOC(=O)C1(CCC2CCCCC2)CCCCC1 ?
Found: inactive

Lookup: For this molecule, state the assay outcome: O=c1c2[nH]c3cccc(Cl)c3c2cnn1-c1ccc(F)cc1
Found: inactive

Lookup: Short answer needed: outcome of this test for COc1ccc(C2c3cc4c(cc3OC(O)C2C)OCO4)cc1 (stereo unspecified) ?
Found: inactive

---

Assay: NCI Yeast Anticancer Drug Screen. Data for the rad50 strain (AID 155);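 further: 0% = growth of vehicle-only cultures of the same strain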
Settings: S. cerevisiae rad50 strain growth inhibition; at 5.0 µM (retest, dose inferred, filed as 0.5); active compounds read high
The panel holds about 79,000 compounds, 15% with a hit somewhere; the sample as a whole holds those more often.
Reported property: growth inhibition (%)
Dear colleague, please return just the value in %, with no unit written.

Observe how each entry below is paired with its result.
compound="CC1OC(CC(=O)O)Cc2c1c(O)c1c(O)cc(-c3cc(=O)c4c(=O)c5c(c(=O)c=4c3=O)CC(CC(=O)O)OC5C)c(O)c1c2O (stereo unspecified)" value_measured=-3
compound="CC(C)(C)C(=O)CC(Cc1nccc2ccccc12)c1ccco1 (stereo unspecified)" value_measured=-3
compound="CCCC(C(=O)OCCNC1CCCCC1)c1ccccc1 (stereo unspecified)" value_measured=2
compound=CC(=O)Oc1c2c(c(C)c3ccccc13)C(=O)c1cccnc1C2=O value_measured=6
compound=NC(=S)C(=S)N/C=C(/c1ccc(Cl)cc1)S(=O)(=O)Cc1ccc(Cl)cc1 value_measured=1

In the following, a different compound is considered.
Lookup: Using the record for COc1ccc2[nH]cc(C(=O)O)c2c1 , report its growth inhibition.
Found: -4
